# system name: Endothelin receptor type B (Rattus norvegicus, UniProt P21451)
# Sequence (P21451 whole entry): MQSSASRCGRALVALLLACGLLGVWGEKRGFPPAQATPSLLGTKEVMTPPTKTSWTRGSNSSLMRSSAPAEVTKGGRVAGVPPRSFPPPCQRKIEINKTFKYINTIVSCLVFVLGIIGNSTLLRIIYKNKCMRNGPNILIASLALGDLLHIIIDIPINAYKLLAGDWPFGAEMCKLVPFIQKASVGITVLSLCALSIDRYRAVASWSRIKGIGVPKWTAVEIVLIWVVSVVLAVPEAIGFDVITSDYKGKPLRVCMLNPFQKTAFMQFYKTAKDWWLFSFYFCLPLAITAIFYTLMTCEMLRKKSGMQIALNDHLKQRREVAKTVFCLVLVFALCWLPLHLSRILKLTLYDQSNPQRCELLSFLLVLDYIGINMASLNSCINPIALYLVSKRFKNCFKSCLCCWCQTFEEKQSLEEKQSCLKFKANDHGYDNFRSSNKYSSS
Overview of reported IC50 across a group of compounds:
endpoint label: IC50 (nM)

compound	system name	number
O=C(O)c1c(Cc2cc3c(cc2Cl)OCO3)c(-c2ccccc2)nn1CC1CCC(C(=O)O)CC1 (centres undefined)	Endothelin receptor type B (Rattus norvegicus, UniProt P21451)	810
O=C(O)c1c(Cc2cc3c(cc2Cl)OCO3)c(-c2ccccc2)nn1CC1OCCO1	Endothelin receptor type B (Rattus norvegicus, UniProt P21451)	953
CCC(CC)Cn1nc(-c2ccccc2)c(Cc2cc3c(cc2Cl)OCO3)c1C(=O)O	Endothelin receptor type B (Rattus norvegicus, UniProt P21451)	31
COc1cc(Cn2nc(-c3ccccc3)c(Cc3cc4c(cc3Cl)OCO4)c2C(=O)O)cc(OC)c1	Endothelin receptor type B (Rattus norvegicus, UniProt P21451)	9.7
COc1ccc(-c2nn(CC3CCCCC3)c(C(=O)O)c2Cc2cc3c(cc2Cl)OCO3)cc1	Endothelin receptor type B (Rattus norvegicus, UniProt P21451)	178
O=C(O)c1c(Cc2cc3c(cc2Cl)OCO3)c(-c2ccco2)nn1CC1CCCCC1	Endothelin receptor type B (Rattus norvegicus, UniProt P21451)	9.8
O=C(O)COC1CCCCC1Cn1nc(-c2ccccc2)c(Cc2cc3c(cc2Cl)OCO3)c1C(=O)O (centres undefined)	Endothelin receptor type B (Rattus norvegicus, UniProt P21451)	3.2
O=C(O)c1c(Cc2cc3c(cc2Cl)OCO3)c(-c2cccs2)nn1CC1CCCC(C(=O)O)C1 (centres undefined)	Endothelin receptor type B (Rattus norvegicus, UniProt P21451)	9.9
O=C(O)c1c(Cc2cc3c(cc2Cl)OCO3)c(-c2ccccc2)nn1CC1CCCCC1	Endothelin receptor type B (Rattus norvegicus, UniProt P21451)	2.6
COc1ccc(Cn2nc(-c3ccccc3)c(Cc3cc4c(cc3Cl)OCO4)c2C(=O)O)c(OCC(=O)O)c1	Endothelin receptor type B (Rattus norvegicus, UniProt P21451)	4
O=C(O)COc1ccccc1Cn1nc(-c2cccs2)c(Cc2cc3c(cc2Cl)OCO3)c1C(=O)O	Endothelin receptor type B (Rattus norvegicus, UniProt P21451)	4.6
O=C(O)c1ccc(Cn2nc(-c3ccccc3)c(Cc3cc4c(cc3Cl)OCO4)c2C(=O)O)cc1	Endothelin receptor type B (Rattus norvegicus, UniProt P21451)	2040
O=C(O)c1c(Cc2cc3c(cc2Cl)OCO3)c(-c2ccccn2)nn1CC1CCCCC1	Endothelin receptor type B (Rattus norvegicus, UniProt P21451)	3.4
O=C(O)c1c(Cc2cc3c(cc2Cl)OCO3)c(-c2cccs2)nn1CC1CCC(C(=O)O)CC1 (centres undefined)	Endothelin receptor type B (Rattus norvegicus, UniProt P21451)	825

* * *

# system name: Endothelin-1 receptor (Rattus norvegicus, UniProt P26684)
# Sequence (P26684 whole entry): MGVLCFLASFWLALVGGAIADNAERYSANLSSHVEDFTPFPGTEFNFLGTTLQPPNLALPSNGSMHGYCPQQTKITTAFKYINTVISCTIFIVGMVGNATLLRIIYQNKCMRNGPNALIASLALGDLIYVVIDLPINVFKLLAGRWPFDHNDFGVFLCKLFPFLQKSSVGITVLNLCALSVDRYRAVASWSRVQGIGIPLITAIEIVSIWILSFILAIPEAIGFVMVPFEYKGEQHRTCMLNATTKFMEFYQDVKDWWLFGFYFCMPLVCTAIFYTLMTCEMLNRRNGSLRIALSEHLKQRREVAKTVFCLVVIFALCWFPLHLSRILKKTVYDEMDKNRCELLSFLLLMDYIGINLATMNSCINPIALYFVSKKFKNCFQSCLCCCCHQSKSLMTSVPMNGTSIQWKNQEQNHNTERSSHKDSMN
Kindly apply the following: t if IC50 is less than 2 nM, f in every other case.

molecule	answer label
O=C(O)c1c(Cc2cc3c(cc2Cl)OCO3)c(-c2cccs2)nn1CC1CCC(C(=O)O)CC1 (configuration not stated)	t
O=C(O)c1c(Cc2cc3c(cc2Cl)OCO3)c(-c2ccccc2)nn1CC1CCCCC1	f
O=C(O)c1ccc(Cn2nc(-c3ccccc3)c(Cc3cc4c(cc3Cl)OCO4)c2C(=O)O)cc1	f
O=C(O)c1c(Cc2cc3c(cc2Cl)OCO3)c(-c2ccccn2)nn1CC1CCCCC1	f
O=C(O)c1cc2c(c(Cn3nc(-c4ccccc4)c(Cc4cc5c(cc4Cl)OCO5)c3C(=O)O)c1)OCOC2	f
O=C(O)c1c(Cc2cc3c(cc2Cl)OCO3)c(-c2cccnc2)nn1CC1CCCCC1	f
O=C(O)c1c(Cc2cc3c(cc2Cl)OCO3)c(-c2cccs2)nn1CC1CCCC(C(=O)O)C1 (configuration not stated)	t
O=C(O)COC1CCCCC1Cn1nc(-c2ccccc2)c(Cc2cc3c(cc2Cl)OCO3)c1C(=O)O (configuration not stated)	f
O=C(O)c1c(Cc2cc3c(cc2Cl)OCO3)c(-c2ccccc2)nn1Cc1ccc(Cl)c(Cl)c1	f
O=C(O)c1c(Cc2cc3c(cc2Cl)OCO3)c(-c2ccco2)nn1CC1CCCCC1	t
O=C(O)c1c(Cc2cc3c(cc2Cl)OCO3)c(-c2ccsc2)nn1CC1CCCCC1	t
O=C(O)COc1ccccc1Cn1nc(-c2ccccc2)c(Cc2cc3c(cc2Cl)OCO3)c1C(=O)O	f
